These measurements were taken from patent US20080075726A1.

Field: pIC50. Provide a value for each of the binders that follow.
# Measured on: T1, recombinant human IL-6 (human, UniProt P05231 30-212, limits assumed)
# T1 construct: also called rhIL6; human recombinant IL-6
# Protocol description: competition ELISA, rhIL-6 in solution against captured IL-6
In plain terms, pIC50 is the concentration in mol/L turned into minus its base-10 logarithm.

Could you please provide reported pIC50 for mAb 183 (antibody, V domains shown) VH: QVTLKESGPALVKPTQTLTLTCTFSGFSLTTSGMCVSWIRQPPGKALEWLALIYWDDDKRYNPSLRSRLTITKDTSKNQVVLTMTNMDPVDTATYYCARSYDDYLYYALDYWGQGTLVT VL: DIQMTQSPSSLSASVGDSVTITCRASQSISIYLNWYQQKPGKAPDLLIYATSTLQSGVPSRFSGRGSGTHFTLTIDSLQPEDFATYYCQQTYRNLFTFGQGTKLE ? Thanks!
8.76

Provide only the value of recorded pIC50 for mAb 181 (antibody, V domains shown) VH: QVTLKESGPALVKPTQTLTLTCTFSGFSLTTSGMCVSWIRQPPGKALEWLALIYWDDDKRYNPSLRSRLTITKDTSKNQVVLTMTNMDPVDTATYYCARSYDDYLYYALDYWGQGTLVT VL: DIVMTQSPSSLSASVGDRVTITCRASQTISSYLNWYQQKPGKPPKLLIYAASSLESGVPSRFSGSGSGTEFTLTISSLQPEDLATYYCQQANSFPLTFGGGTKLE
7.89
